Protocol details: VP16 counterscreen qHTS for inhibitors of ROR gamma transcriptional activity;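 note: Gal4-VP16 expression switched on by copper sulfate through the metallothionein promoter; nearly all actives have a fitted effect of over 50% in size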
Assay setup: Drosophila S2 Gal4-VP16 UAS-luciferase, luminescence, 20 h; series mostly up to 53.6 µM
Hit rate of the full screen: of about 310,000 compounds, about 11,000 (3.5%) were called active. Another 8% or so got no clear call; they are omitted. Calls come from the whole dose curve; as a rule, active = well fitted inhibition curve with a large enough effect; inconclusive = small, poorly fitted or top-dose-only effect, or effect the other way; inactive = flat fitted curve, though single readings scatter. The entries come from a sample that favours actives as a whole.
Valid outcomes are listed here; reply with one: YES (active), NO (inactive)

molecule=COc1cccc(CNC(=O)COc2cc(O)c3c(c2)OC(C)(C)CC3=O)c1 discrete_label=NO
molecule=COc1ccc(-c2nc(-c3ccccc3)no2)c(OC)c1 discrete_label=YES
molecule=CCc1ccc(C(=O)NN=C2CCCCCC2)s1 discrete_label=NO
molecule=CC(C)NC(=S)NN=C1CCCCCCCCCCC1 discrete_label=YES
molecule=O=C(O)c1ccc(/C=N/NC(=O)c2ccc(Br)cc2)cc1 discrete_label=NO
molecule=O=[N+]([O-])/C=C/c1ccc2c(ccn2Cc2ccccc2)c1 discrete_label=YES
molecule=Cc1n[nH]c(=O)n1-c1ccc(C(C)C)cc1 discrete_label=NO
molecule=Cc1c(Cl)cccc1NC(=S)N(Cc1ccccc1)Cc1cccnc1 discrete_label=NO

Outcome? CCOC(=O)C1(Cc2ccccc2C)CCCN(C(=O)c2ccc(COC)o2)C1 (centres undefined)
NO
